# assayed system: His6-ERα298-554 Y537S mutant (ERα ligand-binding domain) (Homo sapiens (Human), UniProt P03372, Y537S)
# Sequence (P03372 298-554 Y537S): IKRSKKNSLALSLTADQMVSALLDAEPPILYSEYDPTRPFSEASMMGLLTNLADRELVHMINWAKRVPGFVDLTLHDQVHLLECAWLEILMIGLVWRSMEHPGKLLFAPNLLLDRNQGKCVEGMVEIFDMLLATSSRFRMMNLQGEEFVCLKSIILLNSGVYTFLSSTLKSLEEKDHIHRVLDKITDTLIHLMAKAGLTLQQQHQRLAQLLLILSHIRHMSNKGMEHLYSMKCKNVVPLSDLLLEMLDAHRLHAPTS
# measurement notes: Test A: biochemical antagonist activity, LanthaScreen TR-FRET ERα coactivator assay, Y537S mutant
# details: asterisk (*): protocol using 10 nM estradiol; read-out: Antagonism Y537S IC50
pIC50: −log10 of the molar value.
assay endpoint: pIC50

molecule	pIC50
Oc1ccc2c(c1)C(c1ccc(O[C@H]3CCN(CCCF)C3)cc1)=C(c1ccc(OC(F)(F)F)cc1)CC2	< 5.40
Cc1ccc(C2=C(c3ccc(O[C@H]4CCN(CCCF)C4)cc3)c3ccc(O)cc3[S+]([O-])C2)c(F)c1 (single isomer, unassigned) [Example 71]	< 5.40

Q: Returns the measured pIC50 for the input molecule. Input: [O-][S+]1CCC(c2ccc(OC(F)(F)F)cc2)=C(c2ccc(O[C@H]3CCN(CCCF)C3)cc2)c2ccc(O)cc21 (single isomer, unassigned) [Example 226]
Ans: < 5.40

###

# assayed system: His6-ERα298-554 WT (ERα ligand-binding domain) (Homo sapiens (Human))
# Sequence (P03372 298-554): as the sequence (P03372 298-554 Y537S) above, with S240Y counted along it
# measurement notes: Test A: biochemical antagonist activity, LanthaScreen TR-FRET ERα coactivator assay, WT
# details: protocol with 3 nM estradiol; read-out: Antagonism WT IC50
assay endpoint: log10 IC50 (log10 of the value in nM)
Transform log10 | Measure IC50 | Unit nM

Some compounds with known log10 IC50 results, for comparison:
compound	assayed system	log10 IC50
Oc1ccc2c(c1)C(c1ccc(O[C@H]3CCN(CCCF)C3)cc1)=C(c1ccc(F)cc1Cl)CC2 [Example 4]	His6-ERα298-554 WT (ERα ligand-binding domain) (Homo sapiens (Human))	2.45
Oc1ccc(C2=C(c3ccc(O[C@H]4CCN(CCCF)C4)cc3)c3ccc(O)cc3OC2)cc1 [Example 83]	His6-ERα298-554 WT (ERα ligand-binding domain) (Homo sapiens (Human))	1.91
Cc1ccc(C2=C(c3ccc(O[C@H]4CCN(CCCF)C4)cc3)c3cc(F)c(O)cc3OCC2)c(F)c1 [Example 138]	His6-ERα298-554 WT (ERα ligand-binding domain) (Homo sapiens (Human))	1.26
Oc1ccc2c(c1)SCCC(c1ccc3cc[nH]c3c1)=C2c1ccc(O[C@H]2CCN(CCCF)C2)cc1 [Example 172]	His6-ERα298-554 WT (ERα ligand-binding domain) (Homo sapiens (Human))	0.78

Q: I am curious: what log10 IC50 value has been reported for Oc1cc2c(cc1F)C(c1ccc(O[C@H]3CCN(CCCF)C3)cc1)=C(c1ccc3c(c1)CCN3)CCO2 [Example 142] ?
Ans: 1.61

Q: Requested field: log10 IC50. Item: Oc1ccc2c(c1)OCCC(c1cccc3[nH]ccc13)=C2c1ccc(O[C@H]2CCN(CCCF)C2)cc1 [Example 110]
Ans: 0.70

Q: Quick one: log10 IC50 for CC(C)Oc1ccc(C2=C(c3ccc(O[C@H]4CCN(CCCF)C4)cc3)c3ccc(O)cc3OCC2)cc1F [Example 141] ?
Ans: 1.36

Q: // lookup log10 IC50 for Oc1ccc2c(c1)SCCC(c1ccc(F)c(OC(F)F)c1)=C2c1ccc(O[C@H]2CCN(CCCF)C2)cc1 [Example 188]
Ans: 0.91

Q: I am curious: what log10 IC50 value has been reported for Oc1ccc2c(c1)OCCC(c1ccc3c(c1)NCC3)=C2c1ccc(O[C@H]2CCN(CCCF)C2)cc1 [Example 116] ?
Ans: 1.49

Q: What log10 IC50 value was documented for this compound, Cc1c(Cl)cccc1C1=C(c2ccc(O[C@H]3CCN(CCCF)C3)cc2)c2ccc(O)c(Cl)c2OCC1 [Example 109] ?
Ans: 1.46

Q: I'd like to know its log10 IC50. The compound in question is Oc1ccc2c(c1)SCC(c1ccc3c(c1)CCN3)=C2c1ccc(O[C@H]2CCN(CCCF)C2)cc1 [Example 20]
Ans: 1.18

Q: Request the reported log10 IC50 associated with Oc1ccc2c(c1)SCCC(c1ccc(F)cc1Cl)=C2c1ccc(O[C@H]2CCN(CCCF)C2)cc1 [Example 159]
Ans: 0.48

###

# maps each entry to its IC50
# assayed system: His6-ERα298-554 D538G mutant (ERα ligand-binding domain) (Homo sapiens (Human), UniProt P03372, D538G)
# Sequence (P03372 298-554 D538G): as the sequence (P03372 298-554 Y537S) above, with S240Y, D241G counted along it
# measurement notes: Test A: biochemical antagonist activity, LanthaScreen TR-FRET ERα coactivator assay, D538G mutant
# details: asterisk (*): protocol using 10 nM estradiol; read-out: Antagonism D538G IC50

Worked examples, 6 molecules total:
molecule	reported result
Cc1ccc(C2=C(c3ccc(O[C@H]4CCN(CCCF)C4)cc3)c3ccc(O)cc3[S+]([O-])C2)c(F)c1 (single isomer, unassigned) [Example 70]	> 4 µM
[O-][S+]1CCC(c2ccc(OC(F)(F)F)cc2)=C(c2ccc(O[C@H]3CCN(CCCF)C3)cc2)c2ccc(O)cc21 (single isomer, unassigned) [Example 226]	> 4 µM
CCOc1ccc(C2=C(c3ccc(O[C@H]4CCN(CCCF)C4)cc3)c3ccc(O)cc3SC2)c(F)c1Cl	> 4 µM
Cc1ccc(C2=C(c3ccc(O[C@H]4CCN(CCCF)C4)cc3)c3ccc(C(=O)O)cc3SC2)c(F)c1	> 4 µM
CC1Cc2c([nH]c3ccccc23)C(c2c(F)cc(O[C@H]3CCN(CCCF)C3)cc2F)N1CC(C)(C)F (single isomer, unassigned) [Example 257]	> 4 µM
Oc1ccc2c(c1)C(c1ccc(O[C@H]3CCN(CCCF)C3)cc1)=C(c1ccc(OC(F)(F)F)cc1)CC2	> 4 µM

# ---- query molecule ----
Q: What measured IC50 goes with CCOc1nccc(C2=C(c3ccc(O[C@H]4CCN(CCCF)C4)cc3)c3ccc(O)cc3SC2)c1F ?
Ans: > 4 µM

###

# System: MCF7 cells (breast tumor cells) WT
# measurement notes: Test B: cell proliferation/viability assay (CellTiter-Glo) on MCF7 WT
# Type: cell-based
# details: Homo sapiens, MCF7, 168 h, 7 days of compound exposure
assay endpoint: pIC50
Give only the number. pIC50 is defined as minus log10 of concentration in molar units.

compound	assay endpoint	reported result
Oc1ccc2c(c1)SCCC(c1ccc(F)c(OC(F)F)c1)=C2c1ccc(O[C@H]2CCN(CCCF)C2)cc1	pIC50	9.70
O=C(O)c1ccc2c(c1)CCCC(c1ccc(OC(F)F)c(F)c1)=C2c1ccc(O[C@H]2CCN(CCCF)C2)nc1	pIC50	9.15

Q: Request the reported pIC50 associated with Oc1ccc2c(c1)CCC(c1ccc(F)cc1Cl)=C2c1ccc(O[C@H]2CCN(CCCF)C2)cc1
Ans: 9.40

Q: Give its pIC50 value. Item: CONC(=O)c1cc(C2=C(c3ccc(O[C@H]4CCN(CCCF)C4)cc3)c3ccc(O)cc3SCC2)ccc1F
Ans: 9.70

Q: Any idea what its pIC50 is? The compound is Oc1ccc2c(c1)SCC(c1ccc(SC(F)(F)F)cc1)=C2c1ccc(O[C@H]2CCN(CCCF)C2)cc1
Ans: 8.70

Q: Query (compound): Oc1ccc2c(c1F)CCCC(c1ccc(OC(F)F)c(F)c1)=C2c1ccc(O[C@H]2CCN(CCCF)C2)nc1 ; field requested: pIC50
Ans: 9.52

Q: For CCOc1cc(C2=C(c3ccc(O[C@H]4CCN(CCCF)C4)cc3)c3ccc(O)cc3SCC2)ccc1F , what is its reported pIC50?
Ans: 9.52

###

Parameter IC50: see the listing below.
# System: MCF7 cells (breast tumor cells) WT
# measurement notes: Test B: cell proliferation/viability assay (CellTiter-Glo) on MCF7 WT
# Format: cell-based
# details: Homo sapiens, MCF7, 168 h, 7 days of compound exposure
Report the value in nM with no unit label.

Solved entries (count: 5):
compound	measure unit	reported result
CCOc1ccc(C2=C(c3ccc(O[C@H]4CCN(CCCF)C4)cc3)c3ccc(O)cc3SCC2)cc1F [Example 185]	nM	0.4
CCOc1ccc(C2=C(c3ccc(O[C@H]4CCN(CCCF)C4)cc3)c3cc(F)c(O)cc3OCC2)c(C)c1 [Example 155]	nM	0.4
CCOc1ccc(C2=C(c3ccc(O[C@H]4CCN(CCCF)C4)cc3)c3ccc(O)cc3SC2)c(F)c1Cl [Example 63]	nM	5
[2H]C([2H])([2H])Oc1ccc(C2=C(c3ccc(O[C@H]4CCN(CCCF)C4)cc3)c3ccc(O)cc3SC2)c(F)c1 [Example 34]	nM	0.5
Cc1ccc(C2=C(c3ccc(O[C@H]4CCN(CCCF)C4)nc3)c3ccc(O)cc3SCC2)c(Cl)c1 [Example 206]	nM	0.3

Q: # IC50 lookup, item Oc1ccc2c(c1)CCCC(c1ccc(Cl)cc1Cl)=C2c1ccc(O[C@H]2CCN(CCCF)C2)nc1 [Example 239]
Ans: 0.3

Q: Which IC50 is listed for CCNc1ccc(C2=C(c3ccc(O[C@H]4CCN(CCCF)C4)cc3)c3ccc(O)cc3SCC2)c(F)c1 [Example 200] ?
Ans: 0.7

Q: Please give the measured IC50 for this compound: Oc1ccc2c(c1)OCCC(c1cccc3[nH]ccc13)=C2c1ccc(O[C@H]2CCN(CCCF)C2)cc1 [Example 110]
Ans: 1

Q: Which IC50 value belongs to Oc1cc2c(cc1Cl)C(c1ccc(O[C@H]3CCN(CCCF)C3)cc1)=C(c1ccc3c(c1)CCN3)CCO2 [Example 143] ?
Ans: 24
